Where do these numbers come from? They come from PubChem BioAssay (NCI).

- System: LOX IMVI melanoma
- ASSAY: NCI tumour cell line growth inhibition, 48 h
REPORTED ENDPOINT: TGI

[[record]]
structure_as_smiles = "Cn1c(=O)c(C(c2ccccc2)c2c(O)c3ccccc3n(C)c2=O)c(O)c2ccccc21"
reported_endpoint = "TGI"
assay_value = "> 100 µM"

[[record]]
structure_as_smiles = "N#Cc1cc2cc3c4c(c2oc1=O)CCCN4CCC3"
reported_endpoint = "TGI"
assay_value = "> 100 µM"

[[record]]
structure_as_smiles = "COc1ccc(-c2cc(-c3ccccc3)c(C#N)c(=O)[nH]2)cc1"
reported_endpoint = "TGI"
assay_value = "> 100 µM"

[[record]]
structure_as_smiles = "CC1=C(C(=O)Nc2ccccc2C)C(c2ccc(N(C)C)cc2)C(C(=O)Nc2ccccc2C)=C(C)N1"
reported_endpoint = "TGI"
assay_value = "> 100 µM"

[[record]]
structure_as_smiles = "CC(C)[C@@H](C(=O)O[C@@H]1/C=C/C(=O)O[C@@H](C)CCC/C=C/[C@@H]2C[C@H](O)C[C@H]21)[N+](C)(C)C"
reported_endpoint = "TGI"
assay_value = "> 100 µM"


###

In this section we review reported TGI values for a set of compounds.
- Tested on: MDA-MB-435
- ASSAY: NCI tumour cell line growth inhibition, 48 h
REPORTED ENDPOINT: TGI (µM)

[[record]]
compound = "CC(O)(c1ccccc1)c1nccc2ccccc12 (centres undefined)"
reported_endpoint = "TGI"
censoring_operator = "="
assay_value = 39.2

[[record]]
compound = "C[C@H](CC[C@@H](O)C(C)(C)O)[C@H]1CC[C@@]2(C)[C@@H]3CC=C4[C@@H](CC[C@H](OC5OC(CO)C(O)C(O)C5O)C4(C)C)[C@]3(C)C(=O)C[C@]12C (some centres undefined)"
reported_endpoint = "TGI"
censoring_operator = ">"
assay_value = 100

[[record]]
compound = "COc1cc2c(cc1OCCCCCCNC(=O)c1cc3ccccc3[nH]1)N=CC1CCCN1C2=O (centres undefined)"
reported_endpoint = "TGI"
censoring_operator = ">"
assay_value = 100

[[record]]
compound = "CN(C)CCCNC(=O)c1cc(NC(=O)c2cc(NC(=O)c3cc(NC(=O)CCCn4ccc(CO)c4CO)cn3C)cn2C)cn1C"
reported_endpoint = "TGI"
censoring_operator = "="
assay_value = 47.7

[[record]]
compound = "COc1cc(/C=C/C(=O)c2c(C)n([O-])c3cc(C)c(C)cc3[n+]2=O)cc(OC)c1OC"
reported_endpoint = "TGI"
censoring_operator = ">"
assay_value = 100

[[record]]
compound = "O=C(Cc1ccc(/C=C/C(=O)c2ncc[nH]2)cc1)Nc1ccc(Br)cc1"
reported_endpoint = "TGI"
censoring_operator = "="
assay_value = 15.6

[[record]]
compound = "COC(=O)C1(NC(=O)C(N)CC(=O)O)C(C)C1C (centres undefined)"
reported_endpoint = "TGI"
censoring_operator = ">"
assay_value = 100

[[record]]
compound = "CC(=O)OCCC/C(=C\\c1ccc2ccccc2c1)[N+](=O)[O-]"
reported_endpoint = "TGI"
censoring_operator = "="
assay_value = 3.77

[[record]]
compound = "c1ccc(Cn2cc3c(c2)-c2oncc2CC3)cc1"
reported_endpoint = "TGI"
censoring_operator = ">"
assay_value = 100


###

- Test system: SF-539 CNS
- ASSAY: NCI tumour cell line growth inhibition, 48 h
In this section we review reported TGI values for a set of compounds.
REPORTED ENDPOINT: TGI

[[record]]
compound = "N/C(=N\\OC(=O)NC(Cl)=C(Cl)Cl)c1cc(C(F)(F)F)cc(C(F)(F)F)c1"
assay_value = "29.9 µM"

[[record]]
compound = "Cc1cc(=O)c2c(O)c3c(O)cc(O)c4c5c(O)cc(O)c6c(O)c7c(=O)cc(C)c8c1c2c(c34)c(c65)c78"
assay_value = "> 100 µM"

[[record]]
compound = "O=C(c1ccc(Cl)cc1)N1N=C(c2ccc(Cl)cc2)CC1(O)c1cc(F)c(Cl)cc1Cl (stereo not given)"
assay_value = "> 100 µM"

[[record]]
compound = "Clc1ccc(OCC2NC3C=CC32)cn1 (stereo not given)"
assay_value = "> 100 µM"

[[record]]
compound = "COc1cc(C2c3cc4c(cc3C3OC(=O)C2C3CO)OCO4)cc(OC)c1OC (stereo not given)"
assay_value = "0.0668 µM"

[[record]]
compound = "OCCc1cnco1"
assay_value = "> 100 µM"

[[record]]
compound = "C[C@@H]1CN(Cc2ccc(/C=C/c3n[nH]c4ccc5nc(-c6cn[nH]c6C(F)(F)F)c6c(c5c34)CCCC6)cc2)C[C@H](C)O1"
assay_value = "14.7 µM"

[[record]]
compound = "Cc1cc(NC2=NCCO2)c2c(c1C)CCCC2"
assay_value = "22.6 µM"

[[record]]
compound = "O=C(O)c1cn(C2CC2)c2cc(N3CCN(S(=O)(=O)c4ccc(Cl)c(Cl)c4)CC3)c(F)cc2c1=O"
assay_value = "> 100 µM"

[[record]]
compound = "NNC(=O)CC(=O)Nc1ccccc1F"
assay_value = "> 100 µM"


###

- Tested on: SK-MEL-28 melanoma
- ASSAY: NCI tumour cell line growth inhibition, 48 h
In this section we review reported TGI values for a set of compounds.
REPORTED ENDPOINT: TGI

[[record]]
compound = "CC1CCC2c3c([nH]c4ccccc34)C3C(=O)N(C4CCCCC4)C(=O)C3C2C1 (stereo unspecified)"
assay_value = "34.1 µM"

[[record]]
compound = "CC1=CC(=O)c2cccc(NC3=NCCO3)c21"
assay_value = "> 100 µM"

[[record]]
compound = "CC(=O)c1ccc(NC(=O)/C(=N\\NC(N)=O)C(C#N)CC(C)(C)C=O)cc1 (stereo unspecified)"
assay_value = "> 100 µM"

[[record]]
compound = "Brc1cccc(C2(CCCC3(c4cccc(Br)n4)OCCO3)OCCO2)n1"
assay_value = "> 100 µM"

[[record]]
compound = "C#CCOCn1cnc2ncnc(Cl)c21"
assay_value = "> 100 µM"

[[record]]
compound = "CCOC(=O)N(CC)c1c(C(F)(F)F)cc(-c2ccccc2)[nH]c1=O"
assay_value = "> 100 µM"

[[record]]
compound = "Cc1ccccc1NC(=S)N=Nc1c(O)[nH]c2ccccc12"
assay_value = "36.7 µM"

[[record]]
compound = "Cn1c2ccccc2c2cc(-c3ccccc3)c3c(c21)C(=O)C=CC3=O"
assay_value = "40.2 µM"

[[record]]
compound = "O=[N+]([O-])c1cccc2nc3ccccc3c(NCCC[N+]3([O-])CCCCC3)c12"
assay_value = "5.11 µM"

[[record]]
compound = "O=c1[nH]c(=O)n(C2CC(O)C(CO)O2)cc1NN=NCc1ccccc1 (stereo unspecified)"
assay_value = "> 100 µM"

[[record]]
compound = "CCC(=N\\NC(N)=S)/C(C)=N/O"
assay_value = "> 100 µM"


###

- System: DMS 273 small cell lung
- ASSAY: NCI tumour cell line growth inhibition, 48 h
In this section we review reported TGI values for a set of molecules.
REPORTED ENDPOINT: TGI

[[record]]
molecule = "CC1(C)CCc2cc3c(cc2O1)OC(C)(C)C1c2c(ccc4c2CCC(C)(C)O4)OC31 (stereo not given)"
assay_value = "> 100 µM"

[[record]]
molecule = "Cn1c(=O)c(C(c2ccccc2)c2c(O)c3ccccc3n(C)c2=O)c(O)c2ccccc21"
assay_value = "> 100 µM"

[[record]]
molecule = "COc1cc2c(c3oc(-c4ccc5c(c4)OCO5)c(O)c(=O)c13)CCC(C)(C)O2"
assay_value = "> 100 µM"

[[record]]
molecule = "CCOC(=O)CNC(SC)=C(C#N)C#N"
assay_value = "> 100 µM"

[[record]]
molecule = "Cc1cn(C2C=CC(=O)C(C)O2)c(=O)[nH]c1=O (stereo not given)"
assay_value = "33.7 µM"

[[record]]
molecule = "COC1=NN2C(OC)(c3ccccc3)c3c(-c4ccccc4)sc(-c4ccccc4)c3C2(c2ccccc2)S1 (stereo not given)"
assay_value = "> 100 µM"

[[record]]
molecule = "COc1ccc(C2C(C(=O)O)=C(COC(C)=O)Oc3cc4c(cc32)OCO4)cc1 (stereo not given)"
assay_value = "> 100 µM"

[[record]]
molecule = "CSC(=S)N(C)NC(=O)c1cccc(C(=O)NN(C)C(=S)SC)n1"
assay_value = "54.1 µM"

[[record]]
molecule = "CC(C)C(/C=C/c1ccccc1)=N\\NC(=O)N/N=C(/C=C/c1ccccc1)C(C)C"
assay_value = "55.1 µM"

[[record]]
molecule = "O=C1C2Cc3ccccc3CN2C(=O)N1CN1CCN(CN2C(=O)C3Cc4ccccc4CN3C2=O)CC1 (stereo not given)"
assay_value = "> 100 µM"


###

- Test system: SNB-19 CNS
- ASSAY: NCI tumour cell line growth inhibition, 48 h
In this section we review reported TGI values for a set of molecules.
REPORTED ENDPOINT: TGI (µM)

[[record]]
molecule = "O=C(/C=C/c1cccs1)c1ccsc1"
reported_endpoint = "TGI"
censoring_operator = "="
assay_value = 50.8

[[record]]
molecule = "C[C@H](CC[C@@H](O)C(C)(C)O)[C@H]1CC[C@@]2(C)[C@@H]3CC=C4[C@@H](CC[C@H](OC5OC(CO)C(O)C(O)C5O)C4(C)C)[C@]3(C)C(=O)C[C@]12C (stereo not given in full)"
reported_endpoint = "TGI"
censoring_operator = ">"
assay_value = 100

[[record]]
molecule = "CC(C)O/C=C1\\C(=O)C2(SCCS2)[C@H]2CCCC[C@@H]12"
reported_endpoint = "TGI"
censoring_operator = ">"
assay_value = 100

[[record]]
molecule = "O=C1C=CC2(O[C@@H](Cc3ccccc3)[C@H](Cc3ccccc3)O2)C(SC(=O)c2ccccc2)C1 (stereo not given in full)"
reported_endpoint = "TGI"
censoring_operator = "="
assay_value = 7.28

[[record]]
molecule = "C=C(C)CC1=C(C(=S)NCCO[Si](C)(C)C(C)(C)C)C(OCC)(OCC)C1=O"
reported_endpoint = "TGI"
censoring_operator = "="
assay_value = 38.3

[[record]]
molecule = "Cc1cc(N(CCCNc2ccnc3cc(Cl)ccc23)Cc2cccs2)nc(Cl)n1"
reported_endpoint = "TGI"
censoring_operator = "="
assay_value = 25.4

[[record]]
molecule = "O=C(CCc1cc(O)cc(O)c1)NCCc1ccc(O)c(O)c1"
reported_endpoint = "TGI"
censoring_operator = ">"
assay_value = 100

[[record]]
molecule = "Cc1ccc(S(=O)(=O)n2cc(-c3cnc(N)c(Br)n3)c3ccccc32)cc1"
reported_endpoint = "TGI"
censoring_operator = ">"
assay_value = 46.1

[[record]]
molecule = "C/C1=C\\CC[C@@](C)(O)[C@H]2C[C@H](CC/C(C)=C/CC1)C1(CC1)C(=O)O2"
reported_endpoint = "TGI"
censoring_operator = ">"
assay_value = 100

[[record]]
molecule = "COc1cc2c(cc1OCCCCC(=O)Nc1ccc(-c3nc4ccccc4s3)cc1)N=C[C@@H]1CCCN1C2=O"
reported_endpoint = "TGI"
censoring_operator = "="
assay_value = 11.2

